ASSAY DETAILS: Bioavailability enhancement: drug, nutraceutical or herbal product given alone or with bioenhancer (BE) to fasted rats, blood (plasma) levels 0-24 hrs by HPLC
CONDITIONS USED: rat, in vivo
Recorded % Enhancement in bioavailability, Piperine + Active molecule, one value per entry.
PARAMETER MEASURED: % Enhancement in bioavailability, Piperine + Active molecule (%)

# COMPOUND, MEASURED VALUE
records = [
    ("CC(=O)N1CCN(c2ccc(OCC3COC(Cn4ccnc4)(c4ccc(Cl)cc4Cl)O3)cc2)CC1 (stereo not drawn)", 156),
    ("Cc1cn([C@H]2C[C@H](N=[N+]=[N-])[C@@H](CO)O2)c(=O)[nH]c1=O", 415),
    ("CS(=O)(=O)Nc1ccc([N+](=O)[O-])cc1Oc1ccccc1 [Nimesulide]", 150),
    ("NCCCC[C@H](N[C@@H](CCc1ccccc1)C(=O)O)C(=O)N1CCC[C@H]1C(=O)O", 98),
    ("Cc1onc(-c2ccccc2Cl)c1C(=O)N[C@@H]1C(=O)N2[C@@H]1SC(C)(C)[C@@H]2C(=O)O", 95),
    ("CCc1cc(C(N)=S)ccn1 [Ethionamide]", 65),
    ("CN1C(C(=O)Nc2ccccn2)=C(O)c2ccccc2S1(=O)=O", 107),
    ("CC[C@H]1OC(=O)[C@H](C)[C@@H](O[C@H]2C[C@@](C)(OC)[C@@H](O)[C@H](C)O2)[C@H](C)[C@@H](O[C@@H]2O[C@H](C)C[C@H](N(C)C)[C@H]2O)[C@](C)(O)C[C@@H](C)C(=O)[C@H](C)[C@@H](O)[C@]1(C)O", 95),
    ("CC[C@H]1OC(=O)[C@H](C)[C@@H](O[C@H]2C[C@@](C)(OC)[C@@H](O)[C@H](C)O2)[C@H](C)[C@@H](O[C@@H]2O[C@H](C)C[C@H](N(C)C)[C@H]2O)[C@](C)(O)C[C@@H](C)CN(C)[C@H](C)[C@@H](O)[C@]1(C)O", 97),
    ("CC(C)(C)NCC(O)c1ccc(O)c(CO)c1 (stereo not drawn)", 85),
    ("CC1COc2c(N3CCN(C)CC3)c(F)cc3c(=O)c(C(=O)O)cn1c23 (stereo not drawn)", 73),
    ("Cn1c(=O)c2[nH]cnc2n(C)c1=O", 75),
    ("CCOC(=O)C1=C(COCCN)NC(C)=C(C(=O)OC)C1c1ccccc1Cl (stereo not drawn)", 103),
]

* * *

Recorded % Enhancement in bioavailability, Piperine + BE from Cuminum cyminum, one value per entry.
ASSAY DETAILS: Bioavailability enhancement: drug, nutraceutical or herbal product given alone or with bioenhancer (BE) to fasted rats, blood (plasma) levels 0-24 hrs by HPLC
CONDITIONS USED: rat, in vivo
PARAMETER MEASURED: % Enhancement in bioavailability, Piperine + BE from Cuminum cyminum (%)

# MOLECULE, MEASURED VALUE
records = [
    ("CC1=C(C(=O)O)N2C(=O)[C@@H](NC(=O)[C@H](N)c3ccc(O)cc3)[C@H]2SC1", 79),
    ("CN/C(=N/CCSCc1nc[nH]c1C)NC#N", 105),
    ("CNC(=C[N+](=O)[O-])NCCSCc1ccc(CN(C)C)o1", 89),
]

* * *

ASSAY DETAILS: Bioavailability enhancement: drug, nutraceutical or herbal product given alone or with bioenhancer (BE) to fasted rats, blood (plasma) levels 0-24 hrs by HPLC
CONDITIONS USED: rat, in vivo
Recorded % Enhancement in bioavailability, Piperine + Active molecule, one value per entry.
PARAMETER MEASURED: % Enhancement in bioavailability, Piperine + Active molecule (%)

# COMPOUND, MEASURED VALUE
data = [
    ("C=CC[C@@H]1/C=C(\\C)C[C@H](C)C[C@H](OC)[C@H]2O[C@@](O)(C(=O)C(=O)N3CCCC[C@H]3C(=O)O[C@H](/C(C)=C/[C@@H]3CC[C@@H](O)[C@H](OC)C3)[C@H](C)[C@@H](O)CC1=O)[C@H](C)C[C@@H]2OC [Tacrolimus]", 117),
    ("CO[C@H]1/C=C/O[C@@]2(C)Oc3c(C)c(O)c4c(O)c(c(/C=N/N5CCN(C)CC5)c(O)c4c3C2=O)NC(=O)/C(C)=C\\C=C\\[C@H](C)[C@H](O)[C@@H](C)[C@@H](O)[C@@H](C)[C@H](OC(C)=O)[C@@H]1C [Rifampicin]", 366),
    ("O=C(O)Cc1ccccc1Nc1c(Cl)cccc1Cl [Diclofenac]", 108),
]

* * *

Recorded % Enhancement in bioavailability, Piperine + Active molecule, one value per entry.
ASSAY DETAILS: Bioavailability enhancement: drug, nutraceutical or herbal product given alone or with bioenhancer (BE) to fasted rats, blood (plasma) levels 0-24 hrs by HPLC
CONDITIONS USED: rat, in vivo
PARAMETER MEASURED: % Enhancement in bioavailability, Piperine + Active molecule (%)

# COMPOUND, UNIT STRING, MEASURED VALUE
measured = [
    ("CC(C)NCC(O)COc1cccc2ccccc12 (stereo not shown) [Propranolol]", "%", 210),
    ("Nc1ccc(S(=O)(=O)c2ccc(N)cc2)cc1 [Dapsone]", "%", 75),
    ("CC[C@H]1OC(=O)[C@H](C)[C@@H](O[C@H]2C[C@@](C)(OC)[C@@H](O)[C@H](C)O2)[C@H](C)[C@@H](O[C@@H]2O[C@H](C)C[C@H](N(C)C)[C@H]2O)[C@](C)(O)C[C@@H](C)/C(=N\\OCOCCOC)[C@H](C)[C@@H](O)[C@]1(C)O [Roxythromycin]", "%", 103),
    ("O=c1[nH]cc(F)c(=O)[nH]1 [5-Fluorouracil]", "%", 435),
    ("CC1(C)S[C@@H]2[C@H](NC(=O)[C@H](N)c3ccc(O)cc3)C(=O)N2[C@H]1C(=O)O [Amoxycillin]", "%", 98),
]

* * *

ASSAY DETAILS: Bioavailability enhancement: drug, nutraceutical or herbal product given alone or with bioenhancer (BE) to fasted rats, blood (plasma) levels 0-24 hrs by HPLC
CONDITIONS USED: rat, in vivo
PARAMETER MEASURED: % Enhancement in bioavailability, Piperine + Active molecule

# MOLECULE, MEASURED VALUE
measured = [
    ("Nc1nc2c(ncn2COCCO)c(=O)[nH]1", "98%"),
    ("NCC[C@H](O)C(=O)N[C@@H]1C[C@H](N)[C@@H](O[C@H]2O[C@H](CN)[C@@H](O)[C@H](O)[C@H]2O)[C@H](O)[C@H]1O[C@H]1O[C@H](CO)[C@@H](O)[C@H](N)[C@H]1O", "Nil"),
    ("N[C@@H]1CON=C1O", "90%"),
    ("O=C(CCCN1CCC(O)(c2ccc(Cl)cc2)CC1)c1ccc(F)cc1", "Nil"),
    ("CN(Cc1cc(Br)cc(Br)c1N)C1CCCCC1", "90%"),
    ("COc1cccc2c1C(=O)c1c(O)c3c(c(O)c1C2=O)C[C@@](O)(C(=O)CO)C[C@@H]3O[C@H]1C[C@H](N)[C@H](O)[C@H](C)O1", "103%"),
    ("NC(=O)c1cnccn1 [Pyrazinamide]", "Nil"),
    ("CN(Cc1cnc2nc(N)nc(N)c2n1)c1ccc(C(=O)N[C@@H](CCC(=O)O)C(=O)O)cc1 [Methotrexate]", "30%"),
]

* * *

ASSAY DETAILS: Bioavailability enhancement: drug, nutraceutical or herbal product given alone or with bioenhancer (BE) to fasted rats, blood (plasma) levels 0-24 hrs by HPLC
CONDITIONS USED: rat, in vivo
PARAMETER MEASURED: % Enhancement in bioavailability, Piperine + BE from Cuminum cyminum

# COMPOUND, MEASURED VALUE
data = [
    ("CO/N=C(\\C(=O)N[C@@H]1C(=O)N2C(C(=O)O)=C(CSc3nc(=O)c(O)nn3C)CS[C@H]12)c1csc(N)n1 [Cefatrioxone]", "Nil"),
    ("C=CC1=C(C(=O)O)N2C(=O)[C@@H](NC(=O)/C(=N\\OCC(=O)O)c3csc(N)n3)[C@H]2SC1 [Cefixime]", "Nil"),
    ("COc1ccc2[nH]c([S+]([O-])Cc3ncc(C)c(OC)c3C)nc2c1 (stereo not drawn) [Omeprazole]", "Nil"),
]
